# assayExplanation: Antagonist activity at human D3 receptor expressed in HEK293 cells assessed as inhibition of quinpirole-stimulated mitogenesis
pIC50: −log10 of the molar value.
measuredAttribute: pIC50

Previously resolved entries follow.
O=C(NCCC(O)CN1CCN(c2cccc(Cl)c2Cl)CC1)c1cc2cc(I)ccc2[nH]1 (stereo not given): 7.42
COc1ccccc1N1CCN(CC(O)CCNC(=O)c2cc3ccccc3o2)CC1 (stereo not given): 7.95
COc1ccccc1N1CCN(C/C=C/CNC(=O)c2cc3ccccc3o2)CC1: 7.83

(A) COc1ccccc1N1CCN(CCCCNC(=O)c2cc3ccccc3s2)CC1
(B) COc1ccccc1N1CCN(C/C=C/CNC(=O)c2cc3ccccc3s2)CC1
(C) COc1ccccc1N1CCN(CCCCNC(=O)c2cc3ccccc3o2)CC1
(D) COc1ccccc1N1CCN(CC(O)CCNC(=O)c2cc3cc(I)ccc3[nH]2)CC1 (stereo not given)
Sort these molecules on pIC50 so the largest reading comes first. Reply: labels, ordered per the request.
A, B, C, D

(1) COc1ccccc1N1CCN(CC(O)CCNC(=O)c2cc3cc(F)ccc3[nH]2)CC1 (stereo not given)
(2) O=C(NC/C=C/CN1CCN(c2cccc(Cl)c2Cl)CC1)c1cc2ccccc2[nH]1
Hi team, can someone confirm which has the larger pIC50: 1 or 2 ? Thanks. Respond using the label that marks the chosen record.
1

src = BindingDB's records for doi:10.1021/jm900095y
